Quick reference: PBM E-score of the listed items.
- study_system: Yer184c (UniProt P39961)
- Sequence: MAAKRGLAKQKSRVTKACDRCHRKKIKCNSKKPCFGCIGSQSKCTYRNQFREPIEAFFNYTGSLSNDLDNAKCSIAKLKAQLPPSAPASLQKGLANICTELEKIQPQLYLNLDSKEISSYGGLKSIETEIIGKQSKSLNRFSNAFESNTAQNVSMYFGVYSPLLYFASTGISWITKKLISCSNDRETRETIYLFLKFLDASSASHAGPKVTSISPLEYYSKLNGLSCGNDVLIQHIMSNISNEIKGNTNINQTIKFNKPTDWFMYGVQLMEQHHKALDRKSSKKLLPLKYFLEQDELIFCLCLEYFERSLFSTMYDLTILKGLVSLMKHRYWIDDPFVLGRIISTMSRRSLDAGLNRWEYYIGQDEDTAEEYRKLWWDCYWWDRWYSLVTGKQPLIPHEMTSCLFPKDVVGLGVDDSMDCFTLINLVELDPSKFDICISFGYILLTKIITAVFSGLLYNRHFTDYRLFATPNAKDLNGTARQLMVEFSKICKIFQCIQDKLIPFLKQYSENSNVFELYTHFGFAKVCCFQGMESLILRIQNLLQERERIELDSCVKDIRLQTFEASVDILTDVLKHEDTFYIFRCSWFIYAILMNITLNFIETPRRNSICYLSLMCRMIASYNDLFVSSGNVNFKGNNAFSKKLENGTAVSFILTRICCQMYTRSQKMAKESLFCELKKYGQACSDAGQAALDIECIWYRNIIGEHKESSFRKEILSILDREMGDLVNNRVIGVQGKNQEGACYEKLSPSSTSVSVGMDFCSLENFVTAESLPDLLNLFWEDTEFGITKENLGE
- method_notes: PBM E-score (8-mer binding enrichment) (E-score (-0.5 to 0.5)); higher = stronger / more preferred TF binding
- condition_parameters: protein concentration: 100 nM; construct: GST-full length
In all, about 33,000 sequences were measured (“E-score (-0.5 to 0.5)”: median about -0.016, highest 2% from about 0.3 on). The list comes from a sample in which the highest values are over-represented; it also holds close analogues and randomly drawn sequences.
Field format: numeric only.

Examples from the recorded data:
Data request: Fill blank: measured PBM E-score of the sequence ACCGGCAC is ____.
Data returned: 0.363

Data request: Then CGCGGCAA ?
Data returned: 0.274

Data request: Then TCTCTTAA ?
Data returned: 0.126

Data request: Then GTAAAGAC ?
Data returned: 0.0705

New cases:
Data request: Fill blank: measured PBM E-score of the sequence CTTCGGAC is ____.
Data returned: 0.325

Data request: Then ACCCAATA ?
Data returned: -0.0358

Data request: Then GGCGGCAC ?
Data returned: 0.0696

Data request: Then ATTCGGAG ?
Data returned: 0.205

Data request: Then GATCTGTA ?
Data returned: -0.0435

Data request: Then GCCGGCAC ?
Data returned: 0.422

Data request: Then CCCGGCAA ?
Data returned: 0.335

* * *

- study_system: Yer184c (UniProt P39961)
- Sequence: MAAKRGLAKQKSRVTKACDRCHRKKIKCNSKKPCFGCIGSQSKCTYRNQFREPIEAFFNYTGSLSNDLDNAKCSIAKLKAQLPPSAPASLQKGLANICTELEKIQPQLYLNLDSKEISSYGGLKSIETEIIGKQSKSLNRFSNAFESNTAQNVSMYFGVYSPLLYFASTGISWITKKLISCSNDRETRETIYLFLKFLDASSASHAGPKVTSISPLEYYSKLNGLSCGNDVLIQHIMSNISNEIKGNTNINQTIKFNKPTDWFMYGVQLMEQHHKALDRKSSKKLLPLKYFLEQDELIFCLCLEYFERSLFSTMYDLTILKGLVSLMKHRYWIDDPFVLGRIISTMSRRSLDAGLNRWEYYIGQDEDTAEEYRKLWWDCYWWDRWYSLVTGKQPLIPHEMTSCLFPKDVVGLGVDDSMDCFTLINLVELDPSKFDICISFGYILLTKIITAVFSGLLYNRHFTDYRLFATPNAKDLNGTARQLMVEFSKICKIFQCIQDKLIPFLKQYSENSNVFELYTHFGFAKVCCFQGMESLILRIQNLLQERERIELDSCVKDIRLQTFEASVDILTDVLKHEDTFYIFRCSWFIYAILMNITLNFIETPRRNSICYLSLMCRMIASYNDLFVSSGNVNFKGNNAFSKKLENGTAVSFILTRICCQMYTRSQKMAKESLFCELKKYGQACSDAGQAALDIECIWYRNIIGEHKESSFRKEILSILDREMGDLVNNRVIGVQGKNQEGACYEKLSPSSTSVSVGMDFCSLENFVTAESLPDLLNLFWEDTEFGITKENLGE
- method_notes: PBM E-score (8-mer binding enrichment) (E-score (-0.5 to 0.5)); higher = stronger / more preferred TF binding
- condition_parameters: protein concentration: 100 nM; construct: GST-full length
The full ranking holds about 33,000 sequences; the median of “E-score (-0.5 to 0.5)” is about -0.016, and the highest 2% start at about 0.3. The list comes from a sample in which the highest values are over-represented; it also holds close analogues and randomly drawn sequences.
assay_metric: PBM E-score
Field format: numeric only.

Examples from the recorded data:
Data request: Field: PBM E-score (Yer184c (UniProt P39961)). Entry: GAAGGGAA
Data returned: -0.203

Data request: Then CCTCGCCC ?
Data returned: -0.125

Data request: Then AAATATAT ?
Data returned: 0.305

Data request: Then ATAGAAAT ?
Data returned: 0.318

Data request: Then AACCGGCG ?
Data returned: 0.306

New cases:
Data request: Field: PBM E-score (Yer184c (UniProt P39961)). Entry: GGCTGAAC
Data returned: 0.0871

Data request: Then AACCGGCA ?
Data returned: 0.238

* * *

Quick reference: PBM E-score of the listed items.
- study_system: Yer184c (UniProt P39961)
- Sequence: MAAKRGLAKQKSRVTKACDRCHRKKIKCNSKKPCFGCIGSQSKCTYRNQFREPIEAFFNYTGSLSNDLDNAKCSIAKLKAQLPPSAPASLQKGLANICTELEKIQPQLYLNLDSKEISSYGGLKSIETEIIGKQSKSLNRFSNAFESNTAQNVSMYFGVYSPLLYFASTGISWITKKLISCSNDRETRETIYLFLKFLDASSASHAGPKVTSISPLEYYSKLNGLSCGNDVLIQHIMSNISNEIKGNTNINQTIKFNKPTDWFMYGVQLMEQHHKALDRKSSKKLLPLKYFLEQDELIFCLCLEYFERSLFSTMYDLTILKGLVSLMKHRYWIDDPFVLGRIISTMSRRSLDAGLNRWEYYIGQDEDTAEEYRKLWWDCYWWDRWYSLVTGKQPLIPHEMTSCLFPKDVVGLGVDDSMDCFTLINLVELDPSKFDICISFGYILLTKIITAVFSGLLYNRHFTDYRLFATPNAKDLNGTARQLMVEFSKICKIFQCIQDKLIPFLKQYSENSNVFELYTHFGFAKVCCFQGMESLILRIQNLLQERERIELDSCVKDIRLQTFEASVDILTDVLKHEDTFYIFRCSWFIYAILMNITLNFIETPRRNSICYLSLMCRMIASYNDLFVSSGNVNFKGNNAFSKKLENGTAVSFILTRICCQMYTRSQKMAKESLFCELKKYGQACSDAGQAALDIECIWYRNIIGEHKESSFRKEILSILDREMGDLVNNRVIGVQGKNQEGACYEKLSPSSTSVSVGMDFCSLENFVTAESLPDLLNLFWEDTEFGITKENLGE
- method_notes: PBM E-score (8-mer binding enrichment) (E-score (-0.5 to 0.5)); higher = stronger / more preferred TF binding
- condition_parameters: protein concentration: 100 nM; construct: GST-full length
Over roughly 33,000 sequences, “E-score (-0.5 to 0.5)” has its median near -0.016; the highest 2% begin near 0.3. The list comes from a sample in which the highest values are over-represented; it also holds close analogues and randomly drawn sequences.

Examples from the recorded data:
Data request: Fill blank: measured PBM E-score of the sequence AATTAATA is ____.
Data returned: 0.407

Data request: Then CGGAAGCC ?
Data returned: 0.211

Data request: Then AGCCGCGG ?
Data returned: 0.419

Data request: Then TATTAATA ?
Data returned: -0.00461

Data request: Then CTTTAGTA ?
Data returned: -0.0339

Data request: Then ATCTCCGC ?
Data returned: 0.14

New cases:
Data request: Fill blank: measured PBM E-score of the sequence CGGAATAC is ____.
Data returned: 0.353

Data request: Then CGGAAGCA ?
Data returned: 0.332

Data request: Then AGTGAGAA ?
Data returned: 0.118

* * *

- study_system: Yer184c (UniProt P39961)
- Sequence: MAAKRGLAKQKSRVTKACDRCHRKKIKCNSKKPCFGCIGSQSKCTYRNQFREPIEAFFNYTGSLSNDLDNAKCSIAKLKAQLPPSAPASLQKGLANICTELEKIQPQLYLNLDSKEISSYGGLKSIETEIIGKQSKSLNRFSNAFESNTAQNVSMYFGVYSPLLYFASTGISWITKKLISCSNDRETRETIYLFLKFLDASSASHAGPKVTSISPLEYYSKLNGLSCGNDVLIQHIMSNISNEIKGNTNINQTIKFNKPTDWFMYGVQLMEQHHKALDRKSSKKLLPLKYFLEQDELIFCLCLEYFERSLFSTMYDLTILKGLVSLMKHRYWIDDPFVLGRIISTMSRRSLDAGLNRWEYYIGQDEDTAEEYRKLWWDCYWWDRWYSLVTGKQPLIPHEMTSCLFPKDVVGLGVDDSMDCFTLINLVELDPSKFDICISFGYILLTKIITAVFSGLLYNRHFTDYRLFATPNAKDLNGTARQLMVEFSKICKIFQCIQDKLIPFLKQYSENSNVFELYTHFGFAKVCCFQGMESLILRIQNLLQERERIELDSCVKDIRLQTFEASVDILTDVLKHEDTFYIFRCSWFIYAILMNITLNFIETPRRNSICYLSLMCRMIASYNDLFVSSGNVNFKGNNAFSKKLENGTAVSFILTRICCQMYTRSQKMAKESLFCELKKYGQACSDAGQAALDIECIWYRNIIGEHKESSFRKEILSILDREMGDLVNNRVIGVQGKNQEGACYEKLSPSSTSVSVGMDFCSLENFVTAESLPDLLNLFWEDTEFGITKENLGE
- method_notes: PBM E-score (8-mer binding enrichment) (E-score (-0.5 to 0.5)); higher = stronger / more preferred TF binding
- condition_parameters: protein concentration: 100 nM; construct: GST-full length
In all, about 33,000 sequences were measured (“E-score (-0.5 to 0.5)”: median about -0.016, highest 2% from about 0.3 on). Many of the other results were omitted from the sample, so the highest values are more common in it than they were.
Quick reference: PBM E-score of the listed items.

Data request: Fill blank: measured PBM E-score of the sequence AACGAACT is ____.
Data returned: 0.0561

Data request: Then CGCCGACA ?
Data returned: 0.18

Data request: Then TCCCGAGA ?
Data returned: 0.305

Data request: Then CGGGGAAG ?
Data returned: 0.0845

Data request: Then TAAGCACA ?
Data returned: 0.189

New cases:
Data request: Fill blank: measured PBM E-score of the sequence ACACTCTC is ____.
Data returned: 0.0613

Data request: Then ATTTCCCG ?
Data returned: 0.328

Data request: Then GCCCGAGA ?
Data returned: 0.24

Data request: Then AAATTCCA ?
Data returned: 0.216

Data request: Then GATCCGGA ?
Data returned: 0.395

Data request: Then AAGTTTGG ?
Data returned: 0.113

Data request: Then AAATCGGT ?
Data returned: 0.0224

Data request: Then ACGTCGCT ?
Data returned: -0.239

Data request: Then GATCCGGC ?
Data returned: 0.354

Data request: Then GCCGAACC ?
Data returned: 0.323

Data request: Then GAATCGGC ?
Data returned: 0.254

Data request: Then GAGAGCGC ?
Data returned: -0.218

Data request: Then ATATTTCG ?
Data returned: 0.318

Data request: Then AGATCGGA ?
Data returned: 0.34

Data request: Then AGCCACTA ?
Data returned: -0.112

Data request: Then GCCGCTCA ?
Data returned: -0.0363

Data request: Then AATCCGGC ?
Data returned: 0.3

Data request: Then ATCTTCGA ?
Data returned: -0.0159

Data request: Then AATCCGGT ?
Data returned: 0.36
